Test system: VERO cell
PARAMETER MEASURED: IC50

For reference, reported IC50 for "COc1ccn2nc(C)c(C(=O)NCc3ccc(N4CCC(c5ccc(OC(F)(F)F)cc5)CC4)cc3)c2c1" stands at > 100 µM

* * *

Molecular target: CYP 3A4 (Homo sapiens, UniProt P08684)
Sequence (P08684 whole entry): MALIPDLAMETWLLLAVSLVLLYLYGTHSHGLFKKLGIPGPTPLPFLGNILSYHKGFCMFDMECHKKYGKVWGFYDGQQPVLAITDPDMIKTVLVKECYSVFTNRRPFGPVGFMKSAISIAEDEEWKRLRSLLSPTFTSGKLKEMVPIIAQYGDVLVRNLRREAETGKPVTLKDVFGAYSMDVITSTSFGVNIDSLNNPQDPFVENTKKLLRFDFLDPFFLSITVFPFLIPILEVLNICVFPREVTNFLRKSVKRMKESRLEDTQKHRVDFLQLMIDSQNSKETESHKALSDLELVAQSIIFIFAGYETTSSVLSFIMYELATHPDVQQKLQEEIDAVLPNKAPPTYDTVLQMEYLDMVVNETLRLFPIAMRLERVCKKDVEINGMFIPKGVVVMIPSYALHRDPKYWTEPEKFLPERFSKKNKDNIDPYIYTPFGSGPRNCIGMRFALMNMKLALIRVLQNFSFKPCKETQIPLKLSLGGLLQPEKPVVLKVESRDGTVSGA
Conditions: read-out: CYP Inhibition (IC50); 3A4-Testerone
PARAMETER MEASURED: IC50

For reference, reported IC50 for "COc1ccn2nc(C)c(C(=O)NCc3ccc(N4CCC(c5ccc(OC(F)(F)F)cc5)CC4)cc3)c2c1" stands at > 10 µM

* * *

Molecular target: CYP 3A4 (Homo sapiens)
Details: read-out: CYP Inhibition (IC50); 3A4-Midazolam
PARAMETER MEASURED: IC50

For reference, reported IC50 for "COc1ccn2nc(C)c(C(=O)NCc3ccc(N4CCC(c5ccc(OC(F)(F)F)cc5)CC4)cc3)c2c1" stands at > 10 µM

* * *

Target: CYP 2C9 (Homo sapiens)
Sequence (P11712 whole entry): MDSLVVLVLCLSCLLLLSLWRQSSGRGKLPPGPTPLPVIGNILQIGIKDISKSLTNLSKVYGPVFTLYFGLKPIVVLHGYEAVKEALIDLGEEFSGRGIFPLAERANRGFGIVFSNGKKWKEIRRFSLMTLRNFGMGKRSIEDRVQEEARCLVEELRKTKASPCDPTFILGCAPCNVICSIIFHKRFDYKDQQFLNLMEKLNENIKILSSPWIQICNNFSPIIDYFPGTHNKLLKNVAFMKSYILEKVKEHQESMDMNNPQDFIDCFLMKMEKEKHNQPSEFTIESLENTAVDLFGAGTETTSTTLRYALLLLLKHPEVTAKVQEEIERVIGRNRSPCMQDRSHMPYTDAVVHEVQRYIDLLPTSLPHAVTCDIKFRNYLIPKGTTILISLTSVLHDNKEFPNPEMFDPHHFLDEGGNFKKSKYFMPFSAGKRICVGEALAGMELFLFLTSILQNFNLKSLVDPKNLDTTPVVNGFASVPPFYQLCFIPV
Test: CYP inhibition
Format: in vitro ADME
PARAMETER MEASURED: IC50

CYP 2C9 (Homo sapiens) assay, molecule "COc1ccn2nc(C)c(C(=O)NCc3ccc(N4CCC(c5ccc(OC(F)(F)F)cc5)CC4)cc3)c2c1" , recorded IC50 = > 10 µM
